Ref: PubChem BioAssay (NCI)

System: K-562 leukemia
Assay: NCI tumour cell line growth inhibition, 48 h
Hi there, I'd appreciate the recorded TGI for every entry that follows.

Q: Value lookup for TGI; key = `CN(C)c1cccc2c(S(=O)(=O)NCCN)cccc12`
Result: > 100 µM

Q: Value lookup for TGI; key = `COc1cc(C=O)cc(C=Nc2ccc(Br)cc2)c1O`
Result: > 100 µM

Q: Value lookup for TGI; key = `COC(=O)c1ccc(NC(N)=NCCC(C)(C)c2ccc(C(F)(F)F)cc2)nc1`
Result: 3.72 µM

Q: Value lookup for TGI; key = `O=c1[nH]c2c(Nc3c4ccccc4nc4ccccc34)c([N+](=O)[O-])c(Nc3c4ccccc4nc4ccccc34)c([N+](=O)[O-])c2[nH]1`
Result: 11.7 µM

Q: Value lookup for TGI; key = `O=C(CI)NC(=O)NC(=O)NCc1ccccc1`
Result: 4.05 µM

Q: Value lookup for TGI; key = `C/C(=N/NC(=S)Nc1ccc(C)cc1)c1ccccn1`
Result: 6.09 µM

Q: Value lookup for TGI; key = [N-]=[N+]=CC(=O)C1CCN(c2ccccc2)C1=O (configuration not stated)
Result: > 10 µM

Q: Value lookup for TGI; key = `Cc1cccc2c1nc1n2C(=O)c2ccccc2-1`
Result: > 100 µM

Q: Value lookup for TGI; key = CCCCCCCCCCCCOCC(COP(=O)(O)OCCN=[N+]=[N-])OC(=O)CCCCCCCCCCC (configuration not stated)
Result: > 100 µM

Q: Value lookup for TGI; key = `NC(=O)c1nc(-c2c(F)cccc2Cl)oc1Nc1ccc(C(=O)N2CCOCC2)cc1`
Result: > 100 µM

Q: Value lookup for TGI; key = O=C1/C(=C\c2cccc(Oc3ccccc3)c2)SC(c2ccccc2)N1c1cc(Cl)ccc1Cl (configuration not stated)
Result: > 100 µM

Q: Value lookup for TGI; key = `O=C(O)[C@H]1NC[C@H]2C(Br)=NO[C@@H]12`
Result: > 100 µM

Q: Value lookup for TGI; key = `O=C(/C=C/c1ccccc1)c1cc(CN2CCOCC2)c(O)c(CN2CCOCC2)c1`
Result: 36.2 µM

Q: Value lookup for TGI; key = `Cn1cc(-c2ccc3ncc(-c4ccc(CC(=O)Nc5cc(C(C)(C)C)nn5C)cc4)cc3c2)cn1`
Result: > 20 µM

Q: Value lookup for TGI; key = `COc1ccc(-c2cnc(-c3ccncc3-c3cccc(OC)c3)o2)cc1`
Result: 12.8 µM

Q: Value lookup for TGI; key = COC(=O)CCC(C)[C@H]1CCC2C3CC[C@@H]4CC5(CC[C@]4(C)C3C[C@H](OC(C)=O)[C@@]21C)OOC1(CCCCC1)OO5 (some centres not stated)
Result: > 100 µM

Q: Value lookup for TGI; key = `CS(=O)(=O)OCCN1CCN(C(=O)c2ccc(Cl)c3c(Nc4ccc(S(=O)(=O)N=C(N)N)cc4)c4ccccc4nc23)CC1`
Result: > 100 µM

Q: Value lookup for TGI; key = COc1cc2c(cc1O)C(Cc1ccc(OCc3ccccc3)c(OCc3ccccc3)c1)N(C(=O)NCCc1ccccc1)CC2 (configuration not stated)
Result: > 100 µM

Q: Value lookup for TGI; key = COCOC1CCCC[C@@]1(OCCOCCO[C@@]1(c2ccccc2)CCCC[C@H]1OCOC)c1ccccc1 (some centres not stated)
Result: > 100 µM

Q: Value lookup for TGI; key = `CCOC(=O)N1CCNCCN(C(=O)OCC)CCNCC1`
Result: > 100 µM

Q: Value lookup for TGI; key = `Cc1ccc(S(=O)(=O)N/N=c2/sc3ccccc3n2C)cc1`
Result: > 100 µM

Q: Value lookup for TGI; key = `CCOC(=O)CNC(=O)c1[nH]cnc1/N=N/N(C)C`
Result: > 100 µM
